Molecular target: acetylcholine receptor
Experiment: SPR, AchR on chip, peptide 10 uM
Rule for this label: Met means Binding affinity (RU) is less than 60 RU; Not met means Binding affinity (RU) is at least 60 RU.

KLLLK [5mer-514]    Met
RRFTK [5mer-326]    Not met
RVLQR [5mer-333]    Not met
KQRCK [5mer-307]    Not met
RLITK [5mer-536]    Not met
RQYRR [5mer-215]    Not met
KSLLR [5mer-535]    Not met
RLRLK [5mer-543]    Not met
KQFSR [5mer-526]    Met
RRVQR [5mer-317]    Not met
KQVLK [5mer-238]    Met
RWRRR [5mer-530]    Not met
RRQLR [5mer-534]    Met
KWIRK [5mer-301]    Not met
KQYTR [5mer-219]    Met
